setup_conditions: 298.15 K; 101.33 kPa; Liquid; Pycnometric method
property_name: mass density (kg/m3)

molecule	property_name	observed_value
CCCCn1cc[n+](C)c1.[Br-] [1-butyl-3-methylimidazolium bromide]	mass density	1230
CC(C)Cn1cc[n+](C)c1.[Br-] [1-isobutyl-3-methylimidazolium bromide]	mass density	1260
CC(C)Cn1cc[n+](CC(C)C)c1.[Br-] [1,3-diisobutylimidazolium bromide]	mass density	1250
CCCCn1cc[n+](CCCC)c1.[Br-] [1,3-dibutylimidazolium bromide]	mass density	1200

* * *

setup_conditions: 298.15 K; 101.33 kPa; Liquid; Vibrating wire viscometry
Numbers after ± are expanded uncertainties.
viscosity values for the compounds below.

compound	viscosity
CC(C)Cn1cc[n+](CC(C)C)c1.[Br-] [1,3-diisobutylimidazolium bromide]	67.6 ± 13 mPa·s
CCCCn1cc[n+](CCCC)c1.[Br-] [1,3-dibutylimidazolium bromide]	11.1 ± 1.8 mPa·s
CC(C)Cn1cc[n+](C)c1.[Br-] [1-isobutyl-3-methylimidazolium bromide]	134 ± 28 mPa·s
CCCCn1cc[n+](C)c1.[Br-] [1-butyl-3-methylimidazolium bromide]	363 ± 110 mPa·s
